Origin of measurements: patent US20250092014A1

Target: LPL:sGPIHBP1 complex (Homo sapiens)
Sequence (P06858 28-475): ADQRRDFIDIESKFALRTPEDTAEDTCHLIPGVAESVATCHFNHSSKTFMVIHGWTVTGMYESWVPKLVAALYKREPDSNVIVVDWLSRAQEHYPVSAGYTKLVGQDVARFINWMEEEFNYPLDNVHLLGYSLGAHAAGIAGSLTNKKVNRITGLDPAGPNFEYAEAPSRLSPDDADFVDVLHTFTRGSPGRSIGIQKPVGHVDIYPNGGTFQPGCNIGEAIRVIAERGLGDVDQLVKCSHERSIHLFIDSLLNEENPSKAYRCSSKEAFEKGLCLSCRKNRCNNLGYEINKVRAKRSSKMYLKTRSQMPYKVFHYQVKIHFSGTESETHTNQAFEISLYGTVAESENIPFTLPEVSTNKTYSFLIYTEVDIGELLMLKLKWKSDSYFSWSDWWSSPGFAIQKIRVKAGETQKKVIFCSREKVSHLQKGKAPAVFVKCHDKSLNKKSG
Sequence (Q8IV16 21-151 partner limits assumed): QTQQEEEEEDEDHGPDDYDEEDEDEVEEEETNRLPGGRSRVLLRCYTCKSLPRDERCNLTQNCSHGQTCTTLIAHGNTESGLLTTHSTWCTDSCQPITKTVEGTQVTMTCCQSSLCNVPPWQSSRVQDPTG
Test: RB assay (LPL:sGPIHBP1 pre-incubated with ANGPTL4, RB substrate)
Type: biochemical
Conditions: read-out: RB qAC50
pEC50: −log10 of the molar value.
RECORDED_ENDPOINT: pEC50

>>> quantitative_result("N#CCn1nc(C(=O)Nc2cc(C(=O)Nc3ccc(F)cc3CC(=O)O)ccc2N2CCCCC2)c2ccccc21")
5.29
>>> quantitative_result("Cc1cc(N2CCCCC2)c(NC(=O)c2nn(CC(F)(F)F)c3ccccc23)cc1C(=O)Nc1ccc(F)cc1CC(=O)O")
5.30
>>> quantitative_result("O=C(O)Cc1cc(F)ccc1NC(=O)c1ccc(N2CCCCC2)c(C(=O)Nc2nn(CC(F)(F)F)c3ccccc23)c1")
5.32
>>> quantitative_result("Cc1cccc2c(C(=O)Nc3cc(C(=O)Nc4ccc(F)cc4CC(=O)O)ccc3N3CCCCC3)nn(CC(F)(F)F)c12")
5.24
>>> quantitative_result("O=C(O)Cc1ccccc1C(=O)Nc1ccc(N2CCCCC2)c(C(=O)Nc2nn(CC(F)(F)F)c3ccccc23)c1")
5.39
>>> quantitative_result("O=C(O)Cc1cc(F)ccc1NC(=O)c1ccc(N2CCCCC2)c(NC(=O)c2nn(CC3CCOCC3)c3ccccc23)c1")
5.49
>>> quantitative_result("O=C(O)Cc1cc(F)ccc1NC(=O)c1ccc(N2CCCCC2)c(NC(=O)c2nn(CC3CCCO3)c3ccccc23)c1 (centres unmarked)")
5.18
>>> quantitative_result("O=C(O)Cc1cc(F)ccc1NC(=O)c1ccc(N2CCCCC2)c(NC(=O)c2nn(CC(F)(F)F)c3cnccc23)c1")
5.19

----------
Biological target: LPL:sGPIHBP1 complex (Homo sapiens)
Sequence (P06858 28-475): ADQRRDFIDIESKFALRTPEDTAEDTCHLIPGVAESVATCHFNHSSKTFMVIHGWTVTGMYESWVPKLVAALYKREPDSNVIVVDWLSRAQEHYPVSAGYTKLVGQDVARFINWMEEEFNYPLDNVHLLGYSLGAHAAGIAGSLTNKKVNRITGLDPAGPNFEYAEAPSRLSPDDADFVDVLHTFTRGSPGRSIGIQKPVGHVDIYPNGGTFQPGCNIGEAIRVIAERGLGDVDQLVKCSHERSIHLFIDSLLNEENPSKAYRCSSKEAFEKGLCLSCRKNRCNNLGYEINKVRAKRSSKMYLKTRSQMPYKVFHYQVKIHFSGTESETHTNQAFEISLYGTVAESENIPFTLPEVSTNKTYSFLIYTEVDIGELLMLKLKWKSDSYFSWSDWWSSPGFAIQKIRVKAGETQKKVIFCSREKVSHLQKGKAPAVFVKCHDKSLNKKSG
Sequence (Q8IV16 21-151 partner limits assumed): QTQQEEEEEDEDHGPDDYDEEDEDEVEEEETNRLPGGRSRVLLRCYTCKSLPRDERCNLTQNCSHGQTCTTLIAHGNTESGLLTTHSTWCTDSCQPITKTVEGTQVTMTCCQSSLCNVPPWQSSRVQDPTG
Test: RB assay (LPL:sGPIHBP1 pre-incubated with ANGPTL4, RB substrate)
Conditions: read-out: RB qAC50
Counter-ions that a name gives are not always drawn.
RECORDED_ENDPOINT: EC50 (µM)

>>> quantitative_result("CC#CCn1nc(C(=O)Nc2cc(C(=O)Nc3ccc(F)cc3CC(=O)O)ccc2N2CCCCC2)c2ccccc21")
3.1
>>> quantitative_result("O=C(O)Cc1cc(F)ccc1NC(=O)c1ccc(N2CCCCC2)c(NC(=O)c2c3ccccc3nn2CC(F)(F)F)c1 [Compound 135, hydrochloride]")
12
>>> quantitative_result("O=C(O)Cc1cc(F)ccc1NC(=O)c1ccc(N2CCCCC2)c(NC(=O)c2nn(CC(F)(F)F)c3cccnc23)c1")
23
>>> quantitative_result("O=C(O)Cc1cc(F)ccc1NC(=O)c1ccc(N2CC3CCC2C3)c(NC(=O)c2nn(CC(F)(F)F)c3ccccc23)c1 (racemic)")
18
>>> quantitative_result("O=C(O)Cc1c(F)cccc1NC(=O)c1ccc(N2CCCCC2)c(NC(=O)c2nn(CC(F)(F)F)c3ccccc23)c1")
5
>>> quantitative_result("O=C(O)Cc1cc(F)ccc1NC(=O)c1ccc(N2CCCC2)c(NC(=O)c2nn(CC(F)(F)F)c3ccccc23)c1")
24
>>> quantitative_result("O=C(O)Cc1cc(F)ccc1NC(=O)c1ccc(N2CC3CC3C2)c(NC(=O)c2nn(CC(F)(F)F)c3ccccc23)c1 (stereo not drawn)")
5
>>> quantitative_result("O=C(O)Cc1cc(F)ccc1NC(=O)c1ccc(N2CCCCC2)c(NC(=O)c2nn(CCC(F)(F)F)c3ccccc23)c1")
4.2
